Where these numbers come from: PubChem BioAssay (NCI)

- test-details: NCI Yeast Anticancer Drug Screen. Data for the CLN2oe strain (AID 163);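 also: 0% = growth of vehicle-only control cultures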
- condition-details: S. cerevisiae CLN2oe strain, at 11.0 µM, hits give high values
The panel holds about 79,000 compounds, 15% with a hit somewhere; the sample as a whole holds those more often.
Give measured growth inhibition for each item. Keep answers brief.
Answers are plain numbers, in %.

>  <compound>
O=[N+]([O-])c1cc[n+]([O-])c(Cl)c1

>  <u>
%

>  <growth inhibition>
12

$$$$
>  <compound>
CC(C)OC(=O)NNc1cccc(Cl)c1

>  <u>
%

>  <growth inhibition>
17

$$$$

Give me growth inhibition for each of these compounds, listed below.
1. [N-]=[N+]=NC1(c2ccccc2)C(=O)Nc2ccccc2C1=O (stereo not drawn)
2. N#CSCC1COc2ccccc2O1 (stereo not drawn)
3. CC(C)CCC[C@@H](C)[C@H]1CC[C@H]2[C@@H]3CC[C@H]4C[C@H](N)CC[C@]4(C)[C@H]3CC[C@]12C

Response:
3
-14
-4

Give me growth inhibition for each of these compounds, listed below.
1. CC1CN(/N=C\c2ccc([N+](=O)[O-])o2)C(=O)O1 (stereo not drawn)
2. CN(N=O)C(=O)Nc1ccc(C(=O)O)cc1

Response:
1. -3
2. -6

Give me growth inhibition for each of these compounds, listed below.
1. NC(=S)N1N=C2c3ccccc3CC[C@@H]2[C@@H]1c1ccccc1
2. COc1ccc(/C=C2\SC(=S)N(/C=C3\C(=O)N(c4ccccc4)N=C3C)C2=O)cc1OC

Response:
1. -25
2. 3

Give me growth inhibition for each of these compounds, listed below.
1. c1ccc2c(c1)N=C1CCCC3CCCC123 (stereo not drawn)
2. O=C(Nn1c(-c2ccccc2)nc2ccccc2c1=O)c1ccc(CS)cc1
3. O=C1C(CCSc2ccccc2)C(=O)N(c2ccccc2)C1c1ccccc1 (stereo not drawn)
4. Nc1ccc(N=Nc2ccc(-c3ccc(O)cc3)cc2)c2ccc(S(=O)(=O)O)cc12
5. CC(C)(N=Nc1ccc(Cl)cc1)[N+](=O)[O-]
6. O=S1(=O)CCC2=CC(C(F)(F)F)=CC(C(F)(F)F)=CN21
7. CS(=O)(=O)O.[Ag]
8. CC1(C2CC2)C(C#N)(C#N)C1(C#N)C#N

Response:
1. 4
2. 0
3. 48
4. 0
5. 83
6. 40
7. 98
8. 16

---

- test-details: NCI Yeast Anticancer Drug Screen. Data for the mec2-1 strain (AID 157)
- condition-details: S. cerevisiae mec2-1 strain, at 3.7 µM, hits give high values
Compounds without any hit were thinned out: in the full panel of roughly 79,000, 15% have a hit.
Give measured growth inhibition for each item. Keep answers brief.
Numbers only, in %.

>  <compound>
COC(=O)C(Cc1c[nH]c2ccccc12)N1CN(C)c2ccccc2C1=O (stereo not given)

>  <growth inhibition / %>
-1

$$$$
>  <compound>
O=C1c2cccc3cccc(c23)C(=O)N1CCNCCN1C(=O)c2cccc3cccc(c23)C1=O

>  <growth inhibition / %>
-4

$$$$
>  <compound>
O=C1Oc2ccccc2C(=O)/C1=C/N1C(=O)N/C(=C\c2ccccc2Br)C1=O

>  <growth inhibition / %>
1

$$$$
>  <compound>
CCOP(=O)(OCC)/C(C#N)=C\c1cccc2ccccc12

>  <growth inhibition / %>
16

$$$$
>  <compound>
CC(=O)N1C=Cc2c(c(C)c3c([nH]c4ccccc43)c2C)C1

>  <growth inhibition / %>
33

$$$$

Give me growth inhibition for each of these compounds, listed below.
1. O=[N+]([O-])c1ccc2[nH]c3c(-c4ccccc4)nccc3c2c1
2. O/N=c1/ccn(O)c2ccccc12
3. CCCCCCCCCCCCCCCCCCNC(=S)/N=C/c1c(O)c2ccccc2[nH]c1=O
4. O=[N+]([O-])[O][Sn]([O][Sn]([O][N+](=O)[O-])([c]1ccccc1)[c]1ccccc1)([c]1ccccc1)[c]1ccccc1
5. O=[N+]([O-])c1ccc(S(=O)(=O)Cc2ccccc2)c([N+](=O)[O-])c1

Response:
1: -6; 2: 97; 3: 2; 4: 0; 5: 18
